self-splicing fitness (ln): recorded values
Test: self-splicing fitness, log relative to wild type (ln ratio); higher = more splicing; Tetrahymena group I intron in knt gene, E. coli kanamycin selection, DiMSum; sequences stand for … in CUCUCU…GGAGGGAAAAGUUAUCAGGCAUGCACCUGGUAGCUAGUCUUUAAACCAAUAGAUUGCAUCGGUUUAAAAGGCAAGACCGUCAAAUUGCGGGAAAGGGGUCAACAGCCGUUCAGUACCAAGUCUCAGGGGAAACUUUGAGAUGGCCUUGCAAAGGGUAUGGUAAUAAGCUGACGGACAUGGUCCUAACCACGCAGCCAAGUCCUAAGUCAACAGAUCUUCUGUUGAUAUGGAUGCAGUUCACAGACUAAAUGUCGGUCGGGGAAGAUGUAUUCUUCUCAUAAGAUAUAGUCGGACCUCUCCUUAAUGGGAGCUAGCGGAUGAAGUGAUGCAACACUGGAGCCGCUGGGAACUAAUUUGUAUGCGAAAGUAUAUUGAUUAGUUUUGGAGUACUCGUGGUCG;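 note: selection with 25 µg/mL kanamycin versus none on LB agar overnight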
Settings: 37 °C
Just the number, please.

Check out these entries, answers already filled in.
Exercise: For `CGGAAGCAAUAUUACGCAAG` , what is its reported self-splicing fitness (ln)?
Solution: -1.95

Exercise: Which value of self-splicing fitness (ln) has been reported for `CACCAGCAAUAUUACGCCAG` in the records?
Solution: 0.205

Exercise: Name the recorded self-splicing fitness (ln) for `GUCUAGCAAUAUUACGUUUU` .
Solution: -0.759

Consider now this further sequence.
Exercise: What value of self-splicing fitness (ln) has been recorded for this entry: `CCGUAGCAAUAUUACGGAUU`
Solution: -3.01
